Data credit: patent US20080032921A1

Target: purified HLA-DR molecule DRB1*0101 (human)
Assay: competition with 125I-labelled peptide for purified HLA
pIC50: −log10 of the molar value.
# key: entry, value: pIC50
measurement-type: pIC50

>>> obs_value("MVAYMLERELVRKTR (modifications not checked) [… (Flu.PB2.205)]")
7.01
>>> obs_value("RGILEDEQMYQKCCN (modifications not checked) [… (Flu.PB1.683)]")
6.70
>>> obs_value("QRGILEDEQMYQKCC (modifications not checked) [… (Flu.PB1.682)]")
6.36
>>> obs_value("LRNLMSQSRTREILT (modifications not checked) [LRNLMS1SRTREILT (Flu.PB2.10)]")
6.21
>>> obs_value("PVHFRNQVKIRRRVD (modifications not checked) [… (Flu.PB2.135)]")
5.53
